assay: Drug uptake in Sprague-Dawley rat brain at 10 mg/kg, po after 4 hrs; type: ADME, organism-based; design: dose 10 mg/kg, route oral; settings: read-out: Drug uptake
measurement_kind: concentration at 4 h (ng/g)
Number only, in ng/g; omit the unit.

// concentration at 4 h lookup, compound = FC(F)(F)Cc1cnc2c(Cl)c(-c3cc(Cl)c4[nH]ccc4c3)ccn12 , result: 126

* * *

Answer each item with its documented Kp at 4 h.
assay: Ratio of drug level in brain to plasma of Sprague-Dawley rat at 10 mg/kg, sc after 4 hrs; assay type: ADME, organism-based; set-up: dose 10 mg/kg, route subcutaneous; details: brain and plasma, read-out: BPR
When you answer, write just the number.

// field: Kp at 4 h; key: O[C@H]1CC[C@H](n2ccc3cc(-c4ccn5c(CC(F)(F)F)cnc5c4Cl)ccc32)CC1 ; value = 0.4

Short answer for O[C@H]1CC[C@H](Nc2ccc(-c3ccn4c(CC(F)(F)F)cnc4c3Cl)cc2Cl)CC1 : Kp at 4 h was 0.7

* * *

Task for the reader: assign each of the following compounds its reported metabolised at 0.25 h, 5 µM.
test: Metabolic stability of human liver microsomes assessed as compound metabolized at 5 uM after 15 mins; type: ADME, Microsome; settings: read-out: Drug metabolism
Report only the number, with the unit % understood.

GET /value?item= O[C@H]1CC[C@H](Nc2ccc(-c3ccn4c(CC(F)(F)F)cnc4c3Cl)cc2Cl)CC1 &field=metabolised at 0.25 h, 5 µM returns 16

// metabolised at 0.25 h, 5 µM lookup, compound = N#Cc1c(-c2ccc3c(ccn3C3CCOCC3)c2)ccn2c(CC(F)(F)F)cnc12 , result: 23

Input N#Cc1c(-c2ccc(Oc3ccccc3)cc2)ccn2c(CC(F)(F)F)cnc12 . Output metabolised at 0.25 h, 5 µM: 23

Short answer for N#Cc1c(-c2ccc3c(ccn3[C@H]3CC[C@H](O)CC3)c2)ccn2c(CC(F)(F)F)cnc12 : metabolised at 0.25 h, 5 µM was 4

// sample N#Cc1c(-c2ccc3c(c2)OCCN3)ccn2c(CC(F)(F)F)cnc12 , its metabolised at 0.25 h, 5 µM was 45

Measured metabolised at 0.25 h, 5 µM of N#Cc1c(-c2cc(Cl)c3c(ccn3CC3CC3)c2)ccn2c(CC(F)(F)F)cnc12 : 19

metabolised at 0.25 h, 5 µM recorded for this compound, N#Cc1c(-c2ccc(OC3CCOCC3)c(Cl)c2)ccn2c(CC(F)(F)F)cnc12 , is 29

Noted for N#Cc1c(-c2ccc3c(ccn3CC3CC3)c2)ccn2c(CC(F)(F)F)cnc12 : its metabolised at 0.25 h, 5 µM reads 24

In plain terms, O[C@H]1CC[C@H](n2ccc3cc(-c4ccn5c(CC(F)(F)F)cnc5c4Cl)ccc32)CC1 has a documented metabolised at 0.25 h, 5 µM of 14

* * *

biological target: UniProtKB Q14416; assay: Agonist activity at human mGlu 2 expressed in CHO cells assessed as [35S]GTPgammaS binding by liquid scintillation analysis
measurement_kind: EC50 (nM)
Respond with the bare value in nM.

Entry N#Cc1c(-c2ccc3c(ccn3C3CCOCC3)c2)ccn2c(CC(F)(F)F)cnc12 : EC50 on UniProtKB Q14416 = 501

# lookup: Cn1ccc2cc(-c3ccn4c(CC(F)(F)F)cnc4c3C#N)cc(Cl)c21 on UniProtKB Q14416, EC50 = 120

Kindly note: UniProtKB Q14416, N#Cc1c(-c2cc(Cl)c3[nH]ccc3c2)ccn2c(CC(F)(F)F)cnc12 , EC50 value reported: 320

EC50 value, target or system UniProtKB Q14416, for N#Cc1c(-c2ccc3c(ccn3[C@H]3CC[C@H](O)CC3)c2)ccn2c(CC(F)(F)F)cnc12 : 330

* * *

test: Drug uptake in Sprague-Dawley rat brain at 10 mg/kg, sc after 4 hrs; type: ADME, organism-based; set-up: dose 10 mg/kg, route subcutaneous; settings: read-out: Drug uptake
Task for the reader: assign each of the following compounds its reported concentration at 4 h.
Kindly provide the numeric value in ng/g only, without the unit symbol.

For this compound ( O[C@H]1CC[C@H](Nc2ccc(-c3ccn4c(CC(F)(F)F)cnc4c3Cl)cc2Cl)CC1 ), measured concentration at 4 h is 485

Form: compound = O[C@H]1CC[C@H](n2ccc3cc(-c4ccn5c(CC(F)(F)F)cnc5c4Cl)ccc32)CC1 ; concentration at 4 h = 843

* * *

assay: Plasma concentration in Sprague-Dawley rat at 10 mg/kg, po after 4 hrs; format: ADME, organism-based; set-up: dose 10 mg/kg, route oral
measurement_kind: concentration at 4 h (ng/mL)
// note: answer is a bare numeric in ng/mL

Sure, the documented concentration at 4 h for FC(F)(F)Cc1cnc2c(Cl)c(-c3cc(Cl)c4[nH]ccc4c3)ccn12 is 168

* * *

test: Ratio of drug level in brain to plasma of Sprague-Dawley rat at 10 mg/kg, sc after 1 hr; type: ADME, organism-based; parameters: dose 10 mg/kg, route subcutaneous; conditions: read-out: BPR
Kindly state Kp at 1 h for each of the entries shown.
I'd appreciate a reply containing only the number, no unit.

Measured Kp at 1 h, O[C@H]1CC[C@H](Nc2ccc(-c3ccn4c(CC(F)(F)F)cnc4c3Cl)cc2Cl)CC1 : 0.5

The reported Kp at 1 h of the compound O[C@H]1CC[C@H](n2ccc3cc(-c4ccn5c(CC(F)(F)F)cnc5c4Cl)ccc32)CC1 was 0.2

* * *

biological target: UniProt Q14416; assay: Agonist activity at human mGlu 2 expressed in CHO cells by PAM assay relative to glutamate; assay type: functional, cell-based
Sequence (Q14416 19-872 limits assumed): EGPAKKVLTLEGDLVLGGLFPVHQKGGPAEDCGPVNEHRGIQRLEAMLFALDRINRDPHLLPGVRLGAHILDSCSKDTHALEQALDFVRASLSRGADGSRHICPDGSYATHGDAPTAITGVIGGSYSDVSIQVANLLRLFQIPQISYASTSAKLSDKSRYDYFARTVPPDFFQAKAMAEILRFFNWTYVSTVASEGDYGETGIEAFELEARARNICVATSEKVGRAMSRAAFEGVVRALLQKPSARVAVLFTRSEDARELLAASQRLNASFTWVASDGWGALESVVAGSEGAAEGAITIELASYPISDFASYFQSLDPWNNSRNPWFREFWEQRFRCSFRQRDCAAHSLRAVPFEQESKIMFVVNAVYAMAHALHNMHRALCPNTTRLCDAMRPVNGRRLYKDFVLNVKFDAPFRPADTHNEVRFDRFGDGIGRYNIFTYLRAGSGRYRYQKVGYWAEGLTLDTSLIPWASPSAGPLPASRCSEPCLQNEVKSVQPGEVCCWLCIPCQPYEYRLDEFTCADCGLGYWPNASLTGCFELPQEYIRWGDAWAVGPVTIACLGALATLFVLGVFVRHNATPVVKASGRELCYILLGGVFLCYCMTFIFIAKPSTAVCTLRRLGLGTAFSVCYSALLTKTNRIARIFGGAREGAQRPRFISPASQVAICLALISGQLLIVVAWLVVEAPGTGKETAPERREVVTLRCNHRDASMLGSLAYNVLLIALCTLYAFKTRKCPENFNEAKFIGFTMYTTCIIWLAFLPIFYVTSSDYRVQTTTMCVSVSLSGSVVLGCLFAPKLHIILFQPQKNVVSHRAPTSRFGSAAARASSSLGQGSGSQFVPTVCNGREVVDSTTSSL
What Emax was measured for each of the following?
Field format: number, assumed %, no unit text.

Reported Emax for O[C@H]1CC[C@H](n2ccc3cc(-c4ccn5c(CC(F)(F)F)cnc5c4Cl)ccc32)CC1 was 244

Entry N#Cc1c(-c2ccc(N3CCOCC3)c(Cl)c2)ccn2c(CC(F)(F)F)cnc12 ; Emax = 167

# Emax of N#Cc1c(-c2ccc3c(c2)OCCNC3)ccn2c(CC(F)(F)F)cnc12 = 105

Item: N#Cc1c(-c2ccc(OC3CCOCC3)c(Cl)c2)ccn2c(CC(F)(F)F)cnc12 | Emax: 173

Item: FC(F)(F)Cc1cnc2c(Cl)c(-c3cc(Cl)c4[nH]ccc4c3)ccn12 | Emax: 217

Entry under test: N#Cc1c(-c2ccc3c(ccn3C3CCOCC3)c2)ccn2c(CC(F)(F)F)cnc12 . Its Emax was 442

Item: Cn1ccc2cc(-c3ccn4c(CC(F)(F)F)cnc4c3C#N)cc(Cl)c21 | Emax: 184

The recorded Emax for entry O[C@H]1CC[C@H](Nc2ccc(-c3ccn4c(CC(F)(F)F)cnc4c3Cl)cc2Cl)CC1 equals 293

Reported Emax for N#Cc1c(-c2ccc3c(c2)OCCN3)ccn2c(CC(F)(F)F)cnc12 was 232

For reference, reported Emax for N#Cc1c(-c2ccc3c(ccn3CC3CC3)c2)ccn2c(CC(F)(F)F)cnc12 stands at 230

Lab note: FC(F)(F)Cc1cnc2c(Cl)c(-c3cc(Cl)c4c(ccn4CC4CC4)c3)ccn12 gave Emax of 193

Sample N#Cc1c(-c2cc(Cl)c3c(ccn3CC3CC3)c2)ccn2c(CC(F)(F)F)cnc12 ; Emax observed: 200

All figures here come from ChEMBL document CHEMBL2150909.
